- testTarget: hTRKA (Homo sapiens, UniProt P04629)
- Sequence (P04629 33-796): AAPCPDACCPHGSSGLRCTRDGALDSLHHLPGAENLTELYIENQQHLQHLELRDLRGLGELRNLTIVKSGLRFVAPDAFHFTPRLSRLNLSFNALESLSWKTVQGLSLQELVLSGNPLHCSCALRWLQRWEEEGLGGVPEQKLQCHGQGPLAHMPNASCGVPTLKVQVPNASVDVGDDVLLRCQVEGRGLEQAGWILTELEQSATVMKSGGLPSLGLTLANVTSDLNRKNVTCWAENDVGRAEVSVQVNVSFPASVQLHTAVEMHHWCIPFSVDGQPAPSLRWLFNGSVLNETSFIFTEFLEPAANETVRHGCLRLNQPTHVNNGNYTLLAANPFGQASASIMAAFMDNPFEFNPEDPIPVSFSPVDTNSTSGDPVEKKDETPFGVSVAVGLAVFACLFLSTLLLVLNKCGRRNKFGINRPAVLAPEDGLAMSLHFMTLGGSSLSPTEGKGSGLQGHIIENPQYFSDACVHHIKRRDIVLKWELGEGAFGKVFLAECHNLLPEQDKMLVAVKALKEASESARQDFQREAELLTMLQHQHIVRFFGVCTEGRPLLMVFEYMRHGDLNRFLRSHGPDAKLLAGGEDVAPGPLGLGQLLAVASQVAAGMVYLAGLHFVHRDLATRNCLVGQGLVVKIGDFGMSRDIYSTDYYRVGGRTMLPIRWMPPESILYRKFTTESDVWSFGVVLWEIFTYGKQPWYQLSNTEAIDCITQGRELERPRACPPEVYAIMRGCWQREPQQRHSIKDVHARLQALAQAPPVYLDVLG
pIC50: −log10 of the molar value.
observationType: pIC50

Noted pIC50 for Cc1cn(CCN2CCN(c3ccccc3-c3cc(C#N)cc(C(=O)NCCCN4CCCC4)c3)CC2)c2ccccc12 , tested on hTRKA (Homo sapiens, UniProt P04629): < 4.70

----------
- testTarget: hLZK (Homo sapiens, UniProt O43283)
- Construct: purchased DiscoverX (KINOMEscan platform)
- Sequence (O43283 whole entry): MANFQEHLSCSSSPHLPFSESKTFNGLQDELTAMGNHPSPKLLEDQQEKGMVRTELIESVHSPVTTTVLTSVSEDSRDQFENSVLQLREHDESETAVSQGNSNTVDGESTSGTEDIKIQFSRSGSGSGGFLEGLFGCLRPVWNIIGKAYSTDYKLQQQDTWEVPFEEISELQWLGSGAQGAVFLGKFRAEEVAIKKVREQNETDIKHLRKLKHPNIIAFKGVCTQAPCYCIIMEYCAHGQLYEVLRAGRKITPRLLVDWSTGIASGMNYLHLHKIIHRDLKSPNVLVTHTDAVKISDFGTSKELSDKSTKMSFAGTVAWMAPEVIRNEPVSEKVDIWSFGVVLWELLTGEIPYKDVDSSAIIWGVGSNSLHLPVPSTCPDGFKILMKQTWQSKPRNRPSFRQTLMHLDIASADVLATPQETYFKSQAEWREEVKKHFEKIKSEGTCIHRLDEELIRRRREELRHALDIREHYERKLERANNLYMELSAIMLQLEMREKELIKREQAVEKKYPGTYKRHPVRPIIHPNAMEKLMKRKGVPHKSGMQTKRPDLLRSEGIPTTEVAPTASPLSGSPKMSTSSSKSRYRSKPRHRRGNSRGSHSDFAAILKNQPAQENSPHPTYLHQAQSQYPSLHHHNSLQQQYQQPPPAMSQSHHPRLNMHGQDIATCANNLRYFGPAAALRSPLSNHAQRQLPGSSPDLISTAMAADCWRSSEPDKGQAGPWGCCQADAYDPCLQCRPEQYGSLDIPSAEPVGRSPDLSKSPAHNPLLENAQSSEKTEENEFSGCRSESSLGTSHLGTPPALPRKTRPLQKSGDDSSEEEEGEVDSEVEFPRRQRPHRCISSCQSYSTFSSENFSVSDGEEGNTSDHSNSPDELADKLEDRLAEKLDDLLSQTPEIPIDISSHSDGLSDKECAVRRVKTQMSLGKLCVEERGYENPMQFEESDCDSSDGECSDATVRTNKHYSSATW
- runDescription: KINOMEscan
- Assay type: binding
observationType: IC50

// recorded IC50 for Cc1cn(CCN2CCN(c3ccccc3-c3cc(C#N)cc(C(=O)NCCCN4CCCC4)c3)CC2)c2ccccc12 [LLY-507] : > 20 µM

----------
- testTarget: hCAMK1D (Homo sapiens, UniProt Q8IU85)
- Sequence (Q8IU85 whole entry): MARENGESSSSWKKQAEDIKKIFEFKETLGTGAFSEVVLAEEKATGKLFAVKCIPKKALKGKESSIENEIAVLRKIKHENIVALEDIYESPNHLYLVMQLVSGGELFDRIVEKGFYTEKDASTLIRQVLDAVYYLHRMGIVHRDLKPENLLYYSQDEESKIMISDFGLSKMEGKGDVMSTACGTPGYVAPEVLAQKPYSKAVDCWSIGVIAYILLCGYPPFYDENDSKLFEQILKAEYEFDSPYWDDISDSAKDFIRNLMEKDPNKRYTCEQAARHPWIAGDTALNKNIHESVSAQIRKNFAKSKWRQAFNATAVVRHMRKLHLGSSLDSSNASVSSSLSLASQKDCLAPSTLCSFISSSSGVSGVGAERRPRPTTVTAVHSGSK
pIC50: −log10 of the molar value.
observationType: pIC50

// recorded pIC50 for Cc1cn(CCN2CCN(c3ccccc3-c3cc(C#N)cc(C(=O)NCCCN4CCCC4)c3)CC2)c2ccccc12 : < 4.70

----------
- testTarget: hCSF1R (Homo sapiens, UniProt P07333)
pIC50: −log10 of the molar value.
observationType: pIC50

Noted pIC50 for Cc1cn(CCN2CCN(c3ccccc3-c3cc(C#N)cc(C(=O)NCCCN4CCCC4)c3)CC2)c2ccccc12 , tested on hCSF1R (Homo sapiens, UniProt P07333): < 4.70

----------
- testTarget: hHPK1 (Homo sapiens, UniProt Q92918)
observationType: IC50

Noted IC50 for Cc1cn(CCN2CCN(c3ccccc3-c3cc(C#N)cc(C(=O)NCCCN4CCCC4)c3)CC2)c2ccccc12 , tested on hHPK1 (Homo sapiens, UniProt Q92918): > 20 µM

----------
- testTarget: hALK(C1156Y) (Homo sapiens, UniProt Q9UM73, C1156Y)
- runDescription: KINOMEscan
observationType: IC50

// recorded IC50 for Cc1cn(CCN2CCN(c3ccccc3-c3cc(C#N)cc(C(=O)NCCCN4CCCC4)c3)CC2)c2ccccc12 : > 20 µM

----------
- testTarget: hROS1 (Homo sapiens, UniProt P08922)
observationType: IC50

Noted IC50 for Cc1cn(CCN2CCN(c3ccccc3-c3cc(C#N)cc(C(=O)NCCCN4CCCC4)c3)CC2)c2ccccc12 [LLY-507] , tested on hROS1 (Homo sapiens, UniProt P08922): > 20 µM

----------
- testTarget: hLTK (Homo sapiens, UniProt P29376)
observationType: IC50

Noted IC50 for Cc1cn(CCN2CCN(c3ccccc3-c3cc(C#N)cc(C(=O)NCCCN4CCCC4)c3)CC2)c2ccccc12 , tested on hLTK (Homo sapiens, UniProt P29376): > 20 µM

----------
- testTarget: hSBK1 (Homo sapiens, UniProt Q52WX2)
- Sequence (Q52WX2 whole entry): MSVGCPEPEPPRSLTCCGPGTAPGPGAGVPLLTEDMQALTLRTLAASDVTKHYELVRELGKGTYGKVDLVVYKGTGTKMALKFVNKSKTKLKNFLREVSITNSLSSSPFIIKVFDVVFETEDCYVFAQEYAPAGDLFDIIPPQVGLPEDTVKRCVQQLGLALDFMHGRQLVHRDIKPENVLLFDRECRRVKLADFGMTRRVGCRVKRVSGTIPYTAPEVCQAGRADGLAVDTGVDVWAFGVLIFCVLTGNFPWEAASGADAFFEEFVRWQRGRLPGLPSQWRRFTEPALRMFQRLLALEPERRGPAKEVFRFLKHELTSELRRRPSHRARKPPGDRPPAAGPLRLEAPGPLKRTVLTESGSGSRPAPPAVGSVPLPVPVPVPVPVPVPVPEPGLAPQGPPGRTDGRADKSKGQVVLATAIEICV
pIC50: −log10 of the molar value.
observationType: pIC50

Noted pIC50 for Cc1cn(CCN2CCN(c3ccccc3-c3cc(C#N)cc(C(=O)NCCCN4CCCC4)c3)CC2)c2ccccc12 [LLY-507] , tested on hSBK1 (Homo sapiens, UniProt Q52WX2): < 4.70

----------
Target protein (sequence): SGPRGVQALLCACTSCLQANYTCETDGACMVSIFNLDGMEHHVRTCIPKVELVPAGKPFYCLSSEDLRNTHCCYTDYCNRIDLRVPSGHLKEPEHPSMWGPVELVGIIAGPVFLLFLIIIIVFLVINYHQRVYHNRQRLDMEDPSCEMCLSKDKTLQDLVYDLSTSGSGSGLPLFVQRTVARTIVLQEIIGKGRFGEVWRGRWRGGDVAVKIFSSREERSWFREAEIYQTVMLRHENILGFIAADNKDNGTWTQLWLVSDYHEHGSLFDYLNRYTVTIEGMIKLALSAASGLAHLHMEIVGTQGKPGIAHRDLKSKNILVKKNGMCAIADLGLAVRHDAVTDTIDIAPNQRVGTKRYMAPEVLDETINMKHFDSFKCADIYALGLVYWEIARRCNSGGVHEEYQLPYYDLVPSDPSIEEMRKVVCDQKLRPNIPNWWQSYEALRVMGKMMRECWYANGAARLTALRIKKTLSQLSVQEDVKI
observationType: IC50

// recorded IC50 for Cc1cn(CCN2CCN(c3ccccc3-c3cc(C#N)cc(C(=O)NCCCN4CCCC4)c3)CC2)c2ccccc12 : > 20 µM

----------
- testTarget: UniProt P53779
observationType: IC50

Noted IC50 for Cc1cn(CCN2CCN(c3ccccc3-c3cc(C#N)cc(C(=O)NCCCN4CCCC4)c3)CC2)c2ccccc12 , tested on UniProt P53779: > 20 µM

----------
- testTarget: hFAK (Homo sapiens)
- Sequence (Q05397 whole entry): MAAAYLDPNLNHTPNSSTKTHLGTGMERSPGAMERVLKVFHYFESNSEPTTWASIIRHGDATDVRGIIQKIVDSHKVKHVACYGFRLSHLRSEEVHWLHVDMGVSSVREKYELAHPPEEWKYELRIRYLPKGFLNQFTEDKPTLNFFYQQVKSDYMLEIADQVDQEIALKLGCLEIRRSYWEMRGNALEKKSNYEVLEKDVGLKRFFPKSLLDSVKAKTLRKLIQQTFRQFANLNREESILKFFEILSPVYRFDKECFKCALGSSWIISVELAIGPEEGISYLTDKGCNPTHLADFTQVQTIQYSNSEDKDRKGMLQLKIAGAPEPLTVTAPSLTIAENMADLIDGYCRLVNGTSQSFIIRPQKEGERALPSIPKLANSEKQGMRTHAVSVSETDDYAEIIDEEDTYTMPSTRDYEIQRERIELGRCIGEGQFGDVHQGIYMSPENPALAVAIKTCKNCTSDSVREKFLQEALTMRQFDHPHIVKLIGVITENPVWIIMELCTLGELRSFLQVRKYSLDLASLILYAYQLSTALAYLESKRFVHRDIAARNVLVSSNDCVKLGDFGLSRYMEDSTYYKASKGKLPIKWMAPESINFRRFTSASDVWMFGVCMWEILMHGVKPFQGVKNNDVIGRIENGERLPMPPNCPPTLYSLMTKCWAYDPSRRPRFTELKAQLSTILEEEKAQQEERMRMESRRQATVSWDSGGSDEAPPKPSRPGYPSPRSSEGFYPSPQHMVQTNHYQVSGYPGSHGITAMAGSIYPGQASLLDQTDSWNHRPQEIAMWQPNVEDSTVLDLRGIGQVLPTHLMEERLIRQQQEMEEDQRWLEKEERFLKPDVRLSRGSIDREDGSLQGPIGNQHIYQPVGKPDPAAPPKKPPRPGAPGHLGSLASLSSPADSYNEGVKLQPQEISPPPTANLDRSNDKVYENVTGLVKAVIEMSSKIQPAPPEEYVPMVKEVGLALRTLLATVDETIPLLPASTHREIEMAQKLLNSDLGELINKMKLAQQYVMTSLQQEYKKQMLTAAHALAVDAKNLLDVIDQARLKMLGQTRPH
observationType: IC50

// recorded IC50 for Cc1cn(CCN2CCN(c3ccccc3-c3cc(C#N)cc(C(=O)NCCCN4CCCC4)c3)CC2)c2ccccc12 : > 20 µM

----------
- testTarget: hEGFR(L747-T751del,Sins) (Homo sapiens, UniProt P00533, DEL747-751/INS746S)
- Sequence (P00533 712-979, stated change not applied): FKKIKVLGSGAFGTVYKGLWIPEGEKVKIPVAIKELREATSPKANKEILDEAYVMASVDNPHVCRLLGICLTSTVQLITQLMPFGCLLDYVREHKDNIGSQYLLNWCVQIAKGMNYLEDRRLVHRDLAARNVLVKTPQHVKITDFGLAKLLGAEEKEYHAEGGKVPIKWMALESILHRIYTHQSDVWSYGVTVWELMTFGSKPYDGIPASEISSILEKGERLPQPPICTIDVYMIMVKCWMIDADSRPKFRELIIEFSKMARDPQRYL
- runDescription: KINOMEscan
observationType: IC50

Noted IC50 for Cc1cn(CCN2CCN(c3ccccc3-c3cc(C#N)cc(C(=O)NCCCN4CCCC4)c3)CC2)c2ccccc12 [LLY-507] , tested on hEGFR(L747-T751del,Sins) (Homo sapiens, UniProt P00533, DEL747-751/INS746S): > 20 µM

----------
- testTarget: hCAMK2A (Homo sapiens)
- Sequence (Q9UQM7 whole entry): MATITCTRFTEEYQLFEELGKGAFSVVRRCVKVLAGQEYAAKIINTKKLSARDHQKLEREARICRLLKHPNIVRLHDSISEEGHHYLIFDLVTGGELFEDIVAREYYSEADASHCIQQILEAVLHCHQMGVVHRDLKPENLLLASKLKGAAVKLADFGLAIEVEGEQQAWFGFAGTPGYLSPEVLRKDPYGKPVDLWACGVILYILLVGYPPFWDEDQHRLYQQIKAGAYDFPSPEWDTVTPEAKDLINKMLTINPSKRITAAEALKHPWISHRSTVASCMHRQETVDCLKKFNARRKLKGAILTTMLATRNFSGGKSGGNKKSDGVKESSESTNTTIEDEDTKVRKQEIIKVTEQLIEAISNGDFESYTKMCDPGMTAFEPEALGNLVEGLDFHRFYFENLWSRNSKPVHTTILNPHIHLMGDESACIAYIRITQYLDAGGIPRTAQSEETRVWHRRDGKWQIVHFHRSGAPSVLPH
pIC50: −log10 of the molar value.
observationType: pIC50

Noted pIC50 for Cc1cn(CCN2CCN(c3ccccc3-c3cc(C#N)cc(C(=O)NCCCN4CCCC4)c3)CC2)c2ccccc12 , tested on hCAMK2A (Homo sapiens): < 4.70

----------
- testTarget: hRARγ (Homo sapiens, UniProt P13631)
pIC50: −log10 of the molar value.
observationType: pIC50

Noted pIC50 for Cc1cn(CCN2CCN(c3ccccc3-c3cc(C#N)cc(C(=O)NCCCN4CCCC4)c3)CC2)c2ccccc12 [LLY-507] , tested on hRARγ (Homo sapiens, UniProt P13631): < 5.00

----------
- testTarget: UniProtKB P31751
- Sequence (P31751 whole entry): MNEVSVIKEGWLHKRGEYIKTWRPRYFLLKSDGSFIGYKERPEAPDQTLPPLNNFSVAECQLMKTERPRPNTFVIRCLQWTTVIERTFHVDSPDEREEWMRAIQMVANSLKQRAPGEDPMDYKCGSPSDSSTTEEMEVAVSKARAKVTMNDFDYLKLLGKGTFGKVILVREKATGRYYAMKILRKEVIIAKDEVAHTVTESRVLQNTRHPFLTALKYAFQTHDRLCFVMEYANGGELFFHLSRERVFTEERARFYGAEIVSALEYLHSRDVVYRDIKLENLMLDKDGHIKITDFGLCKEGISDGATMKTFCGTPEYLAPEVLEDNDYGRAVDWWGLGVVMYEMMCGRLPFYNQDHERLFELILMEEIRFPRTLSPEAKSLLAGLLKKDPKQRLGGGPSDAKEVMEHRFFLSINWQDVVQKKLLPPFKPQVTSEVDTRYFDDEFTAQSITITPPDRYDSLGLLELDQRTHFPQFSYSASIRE
pIC50: −log10 of the molar value.
observationType: pIC50

Noted pIC50 for Cc1cn(CCN2CCN(c3ccccc3-c3cc(C#N)cc(C(=O)NCCCN4CCCC4)c3)CC2)c2ccccc12 , tested on UniProtKB P31751: < 4.70

----------
- testTarget: hGAK (Homo sapiens, UniProt O14976)
- Sequence (O14976 1-1311): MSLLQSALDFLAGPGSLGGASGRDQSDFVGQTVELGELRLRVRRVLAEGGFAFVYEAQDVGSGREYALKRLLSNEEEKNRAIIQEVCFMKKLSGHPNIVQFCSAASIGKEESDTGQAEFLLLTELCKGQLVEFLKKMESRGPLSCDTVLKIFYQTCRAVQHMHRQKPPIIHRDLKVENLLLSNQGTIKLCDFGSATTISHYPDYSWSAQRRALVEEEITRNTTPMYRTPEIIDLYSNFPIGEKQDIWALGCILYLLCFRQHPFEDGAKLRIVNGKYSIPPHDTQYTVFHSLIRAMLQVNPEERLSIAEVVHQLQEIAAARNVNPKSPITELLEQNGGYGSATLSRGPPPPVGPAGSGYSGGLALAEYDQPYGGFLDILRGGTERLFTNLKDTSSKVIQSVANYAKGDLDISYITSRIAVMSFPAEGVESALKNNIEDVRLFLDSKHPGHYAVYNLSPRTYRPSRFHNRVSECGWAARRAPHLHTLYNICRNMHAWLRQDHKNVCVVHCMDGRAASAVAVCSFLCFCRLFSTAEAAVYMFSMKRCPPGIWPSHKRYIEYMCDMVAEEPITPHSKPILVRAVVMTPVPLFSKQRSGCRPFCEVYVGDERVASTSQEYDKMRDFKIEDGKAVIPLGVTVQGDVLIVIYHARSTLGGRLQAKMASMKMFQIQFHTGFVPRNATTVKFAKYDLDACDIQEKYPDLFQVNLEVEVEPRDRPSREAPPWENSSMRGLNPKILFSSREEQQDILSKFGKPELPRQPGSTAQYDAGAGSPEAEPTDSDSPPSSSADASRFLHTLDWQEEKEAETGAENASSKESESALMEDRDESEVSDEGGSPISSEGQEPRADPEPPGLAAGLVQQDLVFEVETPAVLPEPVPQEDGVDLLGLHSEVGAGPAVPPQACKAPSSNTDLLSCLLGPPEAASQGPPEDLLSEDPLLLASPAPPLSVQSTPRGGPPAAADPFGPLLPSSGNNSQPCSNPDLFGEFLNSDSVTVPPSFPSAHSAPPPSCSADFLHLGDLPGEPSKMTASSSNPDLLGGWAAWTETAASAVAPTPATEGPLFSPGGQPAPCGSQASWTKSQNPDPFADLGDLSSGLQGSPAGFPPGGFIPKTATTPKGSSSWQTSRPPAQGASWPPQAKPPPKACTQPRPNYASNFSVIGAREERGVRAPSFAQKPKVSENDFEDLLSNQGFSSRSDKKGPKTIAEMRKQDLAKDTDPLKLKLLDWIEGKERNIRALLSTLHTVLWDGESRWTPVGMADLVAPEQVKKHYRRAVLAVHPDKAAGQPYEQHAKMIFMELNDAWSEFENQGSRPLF
pIC50: −log10 of the molar value.
observationType: pIC50

// recorded pIC50 for Cc1cn(CCN2CCN(c3ccccc3-c3cc(C#N)cc(C(=O)NCCCN4CCCC4)c3)CC2)c2ccccc12 [LLY-507] : < 4.70

Hey, just so you know, these numbers are from paper PMC4447944.
